- System: RARa homodimer (NR concentration 270 nM)
- RUN_DESCRIPTION: PBM binding z-score (relative to random genomic background probes); higher = stronger binding; sequences stand for … in GC…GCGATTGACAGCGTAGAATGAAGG
Give measured PBM binding z-score for each item. Keep answers brief.
Give bare numbers.

Solved entries (count: 6):
ATCTATAGGTAACCAAGTTCAGTGAATGCCGAAC    0.671
AGAATGAGGTTATACGTAGATCCGGGAAGAAAGT    0.0175
TCTAGTTGTTCAAAGGTCACACACTCGAAATGCG    4.19
GCCGACAGGTGAAACGCAGGTAACTCAGGGTGGC    -1.11
TCTTGTAGATCAATCAGGTTAAGAAAGCCTGAGT    -0.252
TCAGACAGGTGAAGTTAACTCAGGTACGCAGTCG    0.495

The following sequences each have a reported value; give each one's PBM binding z-score.
1. TAGCCTAGGTCAGATCGGGCCAGCATACGCTATA
2. TGAATGAGGTTACAAGATCAGGGAACGTTGCAAA
3. ATCTCTAGGTAACAAGTTCAGCGAAAGAGAGGAC
4. GATACAGGGTCAAGGCCAGAGTGCGCGTATTGAT

1. -0.92
2. 0.0919
3. 1.27
4. 1.02

The following sequences each have a reported value; give each one's PBM binding z-score.
1. ACTATTAGTTGTCTTAGGGCAACCGATACGACGC
2. GCTATTAGTTGAAAGGGCGACCGAATGATTCTCG

0.604
-0.0879
